Molecular target: T1, human EphA1 (Homo sapiens, UniProt P21709)
T1 construct: a protein of the extracellular region of each human Eph receptor fused with the SEAP protein and the His tag; made in house; host or cells: Expi293F cells (culture supernatant)
T1 sequence (P21709 26-547 limits assumed): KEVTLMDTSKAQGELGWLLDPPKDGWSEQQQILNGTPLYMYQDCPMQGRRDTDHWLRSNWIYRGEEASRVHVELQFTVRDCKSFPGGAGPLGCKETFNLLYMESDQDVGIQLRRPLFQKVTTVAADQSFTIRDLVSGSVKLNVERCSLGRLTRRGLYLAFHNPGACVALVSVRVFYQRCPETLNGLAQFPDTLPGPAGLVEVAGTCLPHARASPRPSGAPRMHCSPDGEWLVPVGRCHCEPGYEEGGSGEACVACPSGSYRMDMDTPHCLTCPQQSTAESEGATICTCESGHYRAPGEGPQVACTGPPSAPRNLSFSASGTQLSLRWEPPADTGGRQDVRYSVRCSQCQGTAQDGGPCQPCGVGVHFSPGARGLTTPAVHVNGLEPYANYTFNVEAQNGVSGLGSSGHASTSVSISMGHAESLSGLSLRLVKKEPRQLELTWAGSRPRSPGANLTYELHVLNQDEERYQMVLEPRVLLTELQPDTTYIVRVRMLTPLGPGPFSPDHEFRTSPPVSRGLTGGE
Test: Selectivity ELISA of humanized antibodies for human Eph receptor
Format: binding
Conditions: coated protein 1 nM
Would you mind telling me the reported hEphA1-SEAP-: absorbance at 450 nm, percentage with respect to hEphA4-SEAP-His as 100% of each entry?
Numbers only, in %.

1) 82 (antibody, V domains shown, constant regions without entry; synthetic humanized antibody light chain variable region sequence; synthetic humanized antibody heavy chain variable region sequence) VL: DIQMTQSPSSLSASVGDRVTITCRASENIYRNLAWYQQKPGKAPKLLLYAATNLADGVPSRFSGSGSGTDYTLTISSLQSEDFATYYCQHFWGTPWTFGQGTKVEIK VH: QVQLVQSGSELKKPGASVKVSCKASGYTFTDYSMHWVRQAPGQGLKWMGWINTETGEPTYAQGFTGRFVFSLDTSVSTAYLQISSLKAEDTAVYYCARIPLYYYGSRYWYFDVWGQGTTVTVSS
5.4

Read the next record carefully.
The recorded hEphA1-SEAP-: absorbance at 450 nm, percentage with respect to hEphA4-SEAP-His as 100% for entry 81 (antibody, V domains shown, constant regions without entry; synthetic humanized antibody light chain variable region sequence; synthetic humanized antibody heavy chain variable region sequence) VL: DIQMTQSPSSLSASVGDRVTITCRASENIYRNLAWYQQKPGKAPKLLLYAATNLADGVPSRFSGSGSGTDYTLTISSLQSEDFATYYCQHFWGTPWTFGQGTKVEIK VH: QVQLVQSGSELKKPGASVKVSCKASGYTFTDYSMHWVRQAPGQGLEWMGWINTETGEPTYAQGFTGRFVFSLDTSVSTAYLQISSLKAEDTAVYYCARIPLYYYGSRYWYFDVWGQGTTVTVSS equals 4.4

This collection of values is drawn from patent US10428140B2.
